biological target: recombinant human Mcl-1 (residues 171-327) / Bim interaction (Homo sapiens (Human), UniProt Q07820); assay: biochemical; type: binding; settings: 0.1 nM Mcl-1(171-327), 0.05 nM biotin-Bim (51-76); read-out: Mcl-1 HTRF IC50
Sequence (Q07820 171-327): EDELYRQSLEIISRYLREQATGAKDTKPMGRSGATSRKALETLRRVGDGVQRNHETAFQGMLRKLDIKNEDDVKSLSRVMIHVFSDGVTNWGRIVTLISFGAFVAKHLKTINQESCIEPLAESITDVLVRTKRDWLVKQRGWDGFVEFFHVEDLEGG
Mark met for IC50 under 200 pM, not met if at or over.

input: In the record for CCOC(=O)CN1CCN(C[C@]2(OC)/C=C/C[C@H](C)[C@@H](C)S(=O)(=O)NC(=O)c3ccc4c(c3)N(C[C@@H]3CC[C@H]32)C[C@@]2(CCCc3cc(Cl)ccc32)CO4)CC1 , is IC50 less than 200 pM?
output: met

input: Item CC(C)N1CCO[C@]2(/C=C/C[C@H](C)[C@@H](C)S(=O)(=O)NC(=O)c3ccc4c(c3)N(C[C@@H]3CC[C@H]32)C[C@@]2(CCCc3cc(Cl)ccc32)CO4)C1 : IC50 beneath 200 pM, strictly?
output: not met

input: IC50 strictly < 200 pM for this molecule? CO[C@]1(CN2C[C@@H]3C[C@H]2CN3C(C)C)/C=C/C[C@H](C)[C@@H](C)S(=O)(=O)NC(=O)c2ccc3c(c2)N(C[C@@H]2CC[C@H]21)C[C@@]1(CCCc2cc(Cl)ccc21)CO3
output: met

input: Given the entry C[C@@H]1[C@@H](C)C/C=C/[C@]2(CN(Cc3ccncc3)CCO2)[C@@H]2CC[C@H]2CN2C[C@@]3(CCCc4cc(Cl)ccc43)COc3ccc(cc32)C(=O)NS1(=O)=O , would its reported IC50 be below 200 pM?
output: not met

input: Item COC[C@@H]1[C@@H](C)C/C=C/[C@](CN2CCN(C(C)(C)C)CC2)(OC)[C@@H]2CC[C@H]2CN2C[C@@]3(CCCc4cc(Cl)ccc43)COc3ccc(cc32)C(=O)NS1(=O)=O : IC50 beneath 200 pM, strictly?
output: not met
